biological target: HiBit-BRM fusion protein (Homo sapiens); construct: expressed in transfected cells; assay: HiBiT-BRM cell-based degradation assay (Nano-Glo HiBiT Lytic Detection, 24 h); conditions: HeLa cell line expressing HiBiT-BRM, read-out: BRM HiBit Degradation IC50
metric: DC50

>>> meas_value("Cc1ncsc1-c1ccc([C@H](C)NC(=O)[C@@H]2C[C@@H](O)CN2C(=O)[C@@H](c2cc(N3CCC(CN4CCc5[nH]c6nnc(-c7ccccc7O)cc6c5[C@@H]4C)CC3)no2)C(C)C)cc1 (racemic) [Compound 83]")
"> 10 nM"
>>> meas_value("Cc1ncsc1-c1ccc([C@H](C)NC(=O)[C@@H]2C[C@@H](O)CN2C(=O)C(c2cc(OCCNC3(C(=O)O)CCc4[nH]c5nnc(-c6ccccc6O)cc5c4C3)no2)C(C)C)cc1 (relative stereo) [Compound 90]")
"> 1000 nM"

###

molecular target: HiBit-BRM fusion protein (Homo sapiens, UniProt P51531); construct: expressed in transfected cells; test: HiBiT-BRM cell-based degradation assay (Nano-Glo HiBiT Lytic Detection, 24 h); conditions: HeLa cell line expressing HiBiT-BRM, read-out: BRM HiBit Degradation IC50
Sequence (P51531 whole entry, the tested form may be a part): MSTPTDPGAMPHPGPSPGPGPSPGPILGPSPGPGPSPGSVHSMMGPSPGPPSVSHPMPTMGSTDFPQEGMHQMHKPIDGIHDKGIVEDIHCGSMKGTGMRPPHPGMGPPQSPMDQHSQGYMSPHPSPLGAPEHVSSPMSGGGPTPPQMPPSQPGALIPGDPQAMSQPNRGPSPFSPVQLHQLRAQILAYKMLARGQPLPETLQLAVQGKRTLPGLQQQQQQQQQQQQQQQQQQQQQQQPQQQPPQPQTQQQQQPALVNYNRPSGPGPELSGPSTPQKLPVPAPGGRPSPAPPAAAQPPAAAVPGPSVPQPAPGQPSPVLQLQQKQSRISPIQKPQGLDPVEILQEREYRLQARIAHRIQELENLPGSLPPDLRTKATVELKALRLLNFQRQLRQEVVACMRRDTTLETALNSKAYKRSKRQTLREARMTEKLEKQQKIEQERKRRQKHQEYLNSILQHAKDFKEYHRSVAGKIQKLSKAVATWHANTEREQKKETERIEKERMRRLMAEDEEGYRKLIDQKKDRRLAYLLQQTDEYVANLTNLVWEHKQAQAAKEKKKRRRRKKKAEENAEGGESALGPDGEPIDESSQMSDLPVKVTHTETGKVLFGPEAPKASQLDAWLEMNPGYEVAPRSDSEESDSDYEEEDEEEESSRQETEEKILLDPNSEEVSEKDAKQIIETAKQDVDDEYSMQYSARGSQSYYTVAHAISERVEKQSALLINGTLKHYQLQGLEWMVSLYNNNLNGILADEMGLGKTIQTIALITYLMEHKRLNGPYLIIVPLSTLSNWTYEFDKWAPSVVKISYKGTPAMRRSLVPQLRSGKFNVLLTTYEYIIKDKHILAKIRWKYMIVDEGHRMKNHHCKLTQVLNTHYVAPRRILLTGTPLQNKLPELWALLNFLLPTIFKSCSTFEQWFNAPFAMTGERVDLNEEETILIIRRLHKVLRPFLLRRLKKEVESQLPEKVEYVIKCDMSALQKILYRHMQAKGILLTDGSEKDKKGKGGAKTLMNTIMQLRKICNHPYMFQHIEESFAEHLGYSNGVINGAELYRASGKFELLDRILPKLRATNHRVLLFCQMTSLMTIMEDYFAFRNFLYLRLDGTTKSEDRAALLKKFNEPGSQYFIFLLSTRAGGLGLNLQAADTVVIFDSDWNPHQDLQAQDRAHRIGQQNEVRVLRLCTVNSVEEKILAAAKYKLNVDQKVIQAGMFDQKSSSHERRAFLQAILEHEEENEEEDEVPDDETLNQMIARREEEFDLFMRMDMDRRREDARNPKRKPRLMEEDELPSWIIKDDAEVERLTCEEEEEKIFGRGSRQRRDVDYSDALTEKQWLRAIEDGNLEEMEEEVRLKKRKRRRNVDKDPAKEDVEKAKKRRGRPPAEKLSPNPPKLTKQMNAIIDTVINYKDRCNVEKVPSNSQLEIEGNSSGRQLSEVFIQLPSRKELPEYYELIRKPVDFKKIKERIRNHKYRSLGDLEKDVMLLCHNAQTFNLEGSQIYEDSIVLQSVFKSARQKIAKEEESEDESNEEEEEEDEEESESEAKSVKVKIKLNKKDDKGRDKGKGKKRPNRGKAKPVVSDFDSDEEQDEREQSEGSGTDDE
Counter-ions that a name gives are not always drawn.
Listed compounds paired with reported DC50
metric: DC50

>>> meas_value("Cc1ncsc1-c1ccc([C@H](C)NC(=O)[C@@H]2C[C@@H](O)CN2C(=O)[C@@H](c2cc(OCCN3CC(c4c[nH]c5nnc(-c6ccccc6O)cc45)C3)no2)C(C)C)cc1 [Compound 15, formate]")
"> 100 nM"
>>> meas_value("Cc1ncsc1-c1ccc([C@H](C)NC(=O)[C@@H]2C[C@@H](O)CN2C(=O)[C@@H](c2cc(OCCNC(=O)CN3CC(c4cc5cc(-c6ccccc6O)nnc5[nH]4)C3)no2)C(C)C)cc1 (racemic)")
"> 100 nM"
>>> meas_value("Cc1ncsc1-c1ccc(CNC(=O)[C@@H]2C[C@@H](O)CN2C(=O)[C@@H](NC(=O)CCCCCCC(=O)N2CC(c3cc4cc(-c5ccccc5O)nnc4[nH]3)C2)C(C)(C)C)cc1")
"> 1000 nM"
>>> meas_value("Cc1ncsc1-c1ccc([C@H](C)NC(=O)[C@@H]2C[C@@H](O)CN2C(=O)[C@@H](c2cc(N3CCN(C(=O)[C@@H]4CCc5[nH]c6nnc(-c7ccccc7O)cc6c5C4)CC3)no2)C(C)C)cc1 (single isomer, unassigned)")
"> 10 nM"
>>> meas_value("Cc1ncsc1-c1ccc([C@H](C)NC(=O)[C@@H]2C[C@@H](O)CN2C(=O)[C@@H](c2cc(OCCN3CC4(C3)CN(c3cc5cc(-c6ccccc6O)nnc5[nH]3)C4)no2)C(C)C)cc1 (racemic)")
"> 100 nM"
>>> meas_value("Cc1ncsc1-c1ccc([C@H](C)NC(=O)[C@@H]2C[C@@H](O)CN2C(=O)[C@@H](c2cc(OCCN3CC4(CC(c5cc6cc(-c7ccccc7O)nnc6[nH]5)C4)C3)no2)C(C)C)cc1 (racemic)")
"> 10 nM"
>>> meas_value("Cc1ncsc1-c1ccc([C@H](C)NC(=O)[C@@H]2C[C@@H](O)CN2C(=O)[C@@H](c2cc(OCCN3CCC(c4c(C)[nH]c5nnc(-c6ccccc6O)cc45)CC3)no2)C(C)C)cc1 (racemic)")
"> 100 nM"
>>> meas_value("Cc1ncsc1-c1ccc([C@H](C)NC(=O)[C@@H]2C[C@@H](O)CN2C(=O)[C@@H](c2cc(OCCCN3C[C@@H]4[C@H](C3)[C@H]4c3cc4cc(-c5ccccc5O)nnc4[nH]3)no2)C(C)C)cc1 (racemic)")
"> 100 nM"
>>> meas_value("Cc1ncsc1-c1ccc([C@H](C)NC(=O)[C@@H]2C[C@@H](O)CN2C(=O)[C@@H](c2cc(OCCNC3CC4(C3)CC(c3cc5cc(-c6ccccc6O)nnc5[nH]3)C4)no2)C(C)C)cc1 (mixture of isomers)")
"> 10 nM"
>>> meas_value("Cc1ncsc1-c1ccc([C@H](C)NC(=O)[C@@H]2C[C@@H](O)CN2C(=O)[C@@H](c2cc(C3CCN(C(=O)CN4CC(c5cc6cc(-c7ccccc7O)nnc6[nH]5)C4)CC3)no2)C(C)C)cc1 (single isomer, unassigned)")
"> 100 nM"
>>> meas_value("Cc1ncsc1-c1ccc([C@H](C)NC(=O)[C@@H]2C[C@@H](O)CN2C(=O)[C@@H](c2cc(OCCN3C[C@@H]4[C@H](C3)[C@H]4c3[nH]c4nnc(-c5cccc(F)c5O)cc4c3C)no2)C(C)C)cc1 (racemic)")
"> 10 nM"
>>> meas_value("Cc1ncsc1-c1ccc(CNC(=O)[C@@H]2C[C@@H](O)CN2C(=O)[C@@H](NC(=O)CCCCC(=O)NC23CC(c4cc5cc(-c6ccccc6O)nnc5[nH]4)(C2)C3)C(C)(C)C)cc1 (racemic)")
"> 1000 nM"
>>> meas_value("Cc1ncsc1-c1ccc([C@H](C)NC(=O)[C@@H]2C[C@@H](O)CN2C(=O)[C@@H](c2cc(OCCN(C)Cc3cc4cc(-c5ccccc5O)nnc4[nH]3)no2)C(C)C)cc1 (racemic)")
"> 10 nM"
>>> meas_value("Cc1ncsc1-c1ccc([C@H](C)NC(=O)[C@@H]2C[C@@H](O)CN2C(=O)[C@@H](c2cc(OCCNCCC(=O)N3CC(c4cc5cc(-c6ccccc6O)nnc5[nH]4)C3)no2)C(C)C)cc1 (racemic)")
"> 1000 nM"
>>> meas_value("Cc1ncsc1-c1ccc([C@H](C)NC(=O)[C@@H]2C[C@@H](O)CN2C(=O)[C@@H](c2cc(OCCN3C[C@@H]4[C@H](C3)[C@H]4c3[nH]c4nnc(-c5ccccc5O)cc4c3C)no2)C(C)C)cc1")
"< 10 nM"
>>> meas_value("Cc1ncsc1-c1ccc([C@H](C)NC(=O)[C@@H]2C[C@@H](O)CN2C(=O)[C@@H](c2cc(N3CCC(c4cnc(N5CCC(c6c[nH]c7nnc(-c8ccccc8O)cc67)CC5)nc4)CC3)no2)C(C)C)cc1 (single isomer, unassigned)")
"> 10 nM"
>>> meas_value("Cc1ncsc1-c1ccc([C@H](C)NC(=O)[C@@H]2C[C@@H](O)CN2C(=O)[C@@H](c2cc(OCC(=O)N3CC4(Cc5cc(-c6ccccc6O)nnc5N4)C3)no2)C(C)C)cc1 (racemic)")
"> 1000 nM"

###

Target: HiBit-BRM fusion protein (Homo sapiens, UniProt P51531)
Construct: expressed in transfected cells
Test: HiBiT-BRM cell-based degradation assay (Nano-Glo HiBiT Lytic Detection, 24 h)
Conditions: HeLa cell line expressing HiBiT-BRM, read-out: BRM HiBit Degradation IC50
Procedure: Procedure: A stable HeLa cell line expressing HiBiT-BRM was generated. On day 0, 5000 cells were seeded in 40 μL of media into each well of 384-well cell culture plates. […] The plates were shaken for 10 minutes at room temperature and the bioluminescence read using an EnVision plate reader (PerkinElmer). The degradation % was calculated using the following formula: % degradation=100%−100%×(LumSample−LumLC)/(LumHC−LumLC). […]
Listed compounds paired with reported DC50
metric: DC50

>>> meas_value("Cc1ncsc1-c1ccc([C@H](C)NC(=O)[C@@H]2C[C@@H](O)CN2C(=O)[C@@H](c2cc(N3CCC(N4CC(c5cc6cc(-c7ccccc7O)nnc6[nH]5)C4)CC3)no2)C(C)C)cc1 (racemic)")
"> 10 nM"
>>> meas_value("Cc1ncsc1-c1ccc(CNC(=O)[C@@H]2C[C@@H](O)CN2C(=O)[C@@H](NC(=O)[C@H]2CC[C@H](c3cnc(N4CCC(c5cc6cc(-c7ccccc7O)nnc6[nH]5)CC4)nc3)CC2)C(C)(C)C)cc1 (racemic)")
"> 10 nM"
>>> meas_value("Cc1ncsc1-c1ccc([C@H](C)NC(=O)[C@@H]2C[C@@H](O)CN2C(=O)[C@@H](c2cc(N3C[C@@H]4C[C@H]3CN4C(=O)[C@H]3C[C@]4(Cc5cc(-c6ccccc6O)nnc5N4)C3)no2)C(C)C)cc1 (racemic)")
"> 100 nM"
>>> meas_value("Cc1ncsc1-c1ccc(CNC(=O)[C@@H]2C[C@@H](O)CN2C(=O)[C@@H](NC(=O)CCCCCCCCCC(=O)N2CC(c3cc4cc(-c5ccccc5O)nnc4[nH]3)C2)C(C)(C)C)cc1")
"> 100 nM"
>>> meas_value("Cc1ncsc1-c1ccc([C@H](C)NC(=O)[C@@H]2C[C@@H](O)CN2C(=O)[C@@H](c2cc(OCCN3CCC(N4CC(c5cc6cc(-c7ccccc7O)nnc6[nH]5)C4)C3)no2)C(C)C)cc1 (mixture of isomers)")
"> 10 nM"
>>> meas_value("Cc1ncsc1-c1ccc([C@H](C)NC(=O)[C@@H]2C[C@@H](O)CN2C(=O)[C@@H](c2cc(N3CCN(C(=O)[C@H]4CCc5[nH]c6nnc(-c7ccccc7O)cc6c5C4)CC3)no2)C(C)C)cc1 (single isomer, unassigned)")
"> 100 nM"
>>> meas_value("Cc1ncsc1-c1ccc([C@H](C)NC(=O)[C@@H]2C[C@@H](O)CN2C(=O)[C@@H](c2cc(OCCNC34CC(c5cc6cc(-c7ccccc7O)nnc6[nH]5)(C3)C4)no2)C(C)C)cc1 (racemic)")
"> 10 nM"
>>> meas_value("Cc1ncsc1-c1ccc([C@H](C)NC(=O)[C@@H]2C[C@@H](O)CN2C(=O)[C@@H](c2cc(OCCN(C)C(=O)c3cc4cc(-c5ccccc5O)nnc4[nH]3)no2)C(C)C)cc1 (racemic)")
"> 100 nM"
>>> meas_value("Cc1ncsc1-c1ccc([C@H](C)NC(=O)[C@@H]2C[C@@H](O)CN2C(=O)[C@@H](c2cc(OCCNC3CC[C@]34C[C@H](c3cc5cc(-c6ccccc6O)nnc5[nH]3)C4)no2)C(C)C)cc1 (mixture of isomers)")
"> 10 nM"
